Data origin, for the record: the supplement of paper PMC11451515

Test system: P12-Ichikawa
assay_explanation: cell viability relative to DMSO control; higher = less cytotoxic
conditions_used: RPMI 5 mM glucose + 10% dialyzed FBS; 48 h; 5.12 µM
# strict inequality: cell viability < 90% yields Satisfied, everything else yields Not satisfied

compound="CC1(C)CC(=O)c2c(C(F)(F)F)nn(-c3ccc(C(N)=O)c(NC4CCC(OC(=O)CN)CC4)c3)c2C1 (stereo not drawn)" assigned_category=Satisfied
compound="Clc1ccc(COC(Cn2ccnc2)c2ccc(Cl)cc2Cl)cc1 (stereo not drawn)" assigned_category="Not satisfied"
compound="C[Se]CCC(N)C(=O)O (stereo not drawn)" assigned_category=Satisfied
compound="O=C1[O][Pt]2([NH]C3CCCCC3[NH]2)[O]C1=O (stereo not drawn)" assigned_category=Satisfied
compound=Cl.Cl.Fc1ccc(C(OCCN2CCN(CCCc3ccccc3)CC2)c2ccc(F)cc2)cc1 assigned_category="Not satisfied"
compound=CC1=C2N=C([NH]C2=CC(=C1)N3CCOCC3)\C4=C(NC[C@@H](O)C5=CC=CC(=C5)Cl)\C=C/NC4=O assigned_category="Not satisfied"
